test: NCI Yeast Anticancer Drug Screen. Data for the rad50 strain (AID 155);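 also: 0% = growth of vehicle-only cultures of the same strain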; details: S. cerevisiae rad50 strain growth inhibition; at 11.0 µM; hits give high values
Compounds without any hit were thinned out: in the full panel of roughly 79,000, 15% have a hit.
RECORDED_METRIC: growth inhibition (%)
Numeric only. Scale: %

Observe how each entry below is paired with its result.
compound=CC/C(=C(\c1ccccc1)c1ccc(OCCN(C)C)cc1)c1ccccc1 recorded_metric="growth inhibition" readout_units=% val=64
compound=O=C(NCCCNCCCNC(=O)c1cc(-c2ccccc2)nc2ccccc12)c1cc(-c2ccccc2)nc2ccccc12 recorded_metric="growth inhibition" readout_units=% val=-4
compound="c1ccc2c(c1)-c1nc3ccccc3cc1C2N1CCOCC1 (stereo not given)" recorded_metric="growth inhibition" readout_units=% val=10
compound="O=C(OCCN1CCCCCC1)C(c1ccsc1)C1CCCCC1 (stereo not given)" recorded_metric="growth inhibition" readout_units=% val=25
compound="COc1cc2c(c(OC)c1OC)-c1c(cc3c(c1OC)OCO3)CC(C)C(C)(O)C2OC(=O)c1ccccc1 (stereo not given)" recorded_metric="growth inhibition" readout_units=% val=-25

Task item: Item under review: O=C1C2C(C(=O)N1c1ccc(OCc3ccccc3)cc1)C1c3ccccc3C2C2CCCCN21 (stereo not given) . Reported growth inhibition?
Reply: 13

Task item: Next compound: `O=C1Nc2ccc(Cl)c(I)c2C1=O`
Reply: -23

Task item: Next compound: `OC(c1ccc(F)cc1)(c1ccc(F)cc1)C1CC1`
Reply: -26

Task item: Next compound: `COC(=O)c1ccc(CCC2=CC(=O)C(Br)=CC2=O)cc1`
Reply: 15

Task item: Next compound: `O=C(Cc1csc2[n+]1C(=O)/C(=C/c1ccc(Cl)cc1)S2)Nc1ccccc1`
Reply: 9

* * *

test: NCI Yeast Anticancer Drug Screen. Data for the bub3 strain (AID 167); conditions: S. cerevisiae bub3 mutant strain, at 11.0 µM, hits give high values
The panel holds about 79,000 compounds, 15% with a hit somewhere; the sample as a whole holds those more often.
Overview of recorded growth inhibition for various compounds
Numeric only. Scale: %

compound=CSC(=S)Nc1cccc(C)n1 readout_units=% val=-3
compound=NC(=O)NN=C(CS)CS readout_units=% val=3

Task item: Item under review: CC1(C)C(=O)OC(n2cc(F)c(=O)[nH]c2=O)C1=O (centres undefined) . Reported growth inhibition?
Reply: 19

* * *

assay: NCI Yeast Anticancer Drug Screen. Data for the CLN2oe strain (AID 163);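 also: 0% = growth of vehicle-only control cultures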; details: S. cerevisiae CLN2oe strain, at 100.0 µM, hits give high values
This is part of a sample that, as a whole, favours compounds with a hit. Of some 79,000 tested, about 15% had one in any assay.
RECORDED_METRIC: growth inhibition (%)
Numeric only. Scale: %

Observe how each entry below is paired with its result.
molecule="CCCCCCCCC/C=C/C=C/C(=O)NCC(=O)NC1C(O)C(O)C(Nc2ncnc3nc[nH]c23)OC1C(O)CO (stereo unspecified)" readout_units=% val=-11
molecule="Nc1ccccc1CC(O)C(=O)O (stereo unspecified)" readout_units=% val=42
molecule=CC(=O)Nc1ccc(SC(C)=O)cc1 readout_units=% val=85

Task item: Item under review: `Cc1cc(O)cc(O)c1N=Nc1ccc([N+](=O)[O-])cc1` . Reported growth inhibition?
Reply: 55

Task item: Next molecule: `O=C(OCC=C1CCCC1)c1cc([N+](=O)[O-])cc([N+](=O)[O-])c1`
Reply: 96

Task item: Next molecule: CCCN(CCC)CC(O)c1cc(-c2ccc(Cl)cc2)nc2c(C)c(Cl)ccc12 (stereo unspecified)
Reply: 94

Task item: Next molecule: CC(CC(C)(C)[N+](C)(C)C)[N+](C)(C)C (stereo unspecified)
Reply: -7

Task item: Next molecule: `Oc1cccc2c(Cl)ccnc12`
Reply: 97

* * *

assay: NCI Yeast Anticancer Drug Screen. Data for the CLN2oe strain (AID 163);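 also: 0% = growth of vehicle-only control cultures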; settings: S. cerevisiae CLN2oe strain, at 3.7 µM, hits give high values
About 79,000 compounds went through this panel and 15% of them were active in at least one assay; those are over-represented in the sample as a whole.
Overview of recorded growth inhibition for various compounds
Numeric only. Scale: %

compound="C(=C\\c1ccccc1)/COc1ccccc1C(N1CCOCC1)n1nc2ccccc2n1 (stereo unspecified)" recorded_metric="growth inhibition" val=-9
compound=O=[N+]([O-])c1cccc2nc3ccccc3c(NCCCN3CCOCC3)c12 recorded_metric="growth inhibition" val=46
compound=S=C(S)NN1CCOCC1 recorded_metric="growth inhibition" val=31
compound=CCN(CC)CCC(=O)c1ccc(Oc2ccc(F)cc2)cc1 recorded_metric="growth inhibition" val=17

Switching to the query record.
Task item: Item under review: `NC(=O)NN=C(CS)CS` . Reported growth inhibition?
Reply: -11

* * *

Test: NCI Yeast Anticancer Drug Screen. Data for the rad50 strain (AID 155);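 also: 0% = growth of vehicle-only cultures of the same strain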
Conditions: S. cerevisiae rad50 strain growth inhibition; at 1.2 µM; hits give high values
Experimental: Growth inhibition of yeast strains with defined genetic alterations is measured as a screen for potential anti-cancer activity. Selected strains with alterations in DNA damage repair or cell cycle control were exposed to compounds and growth inhibition was measured relative to vehicle treated controls. The strain used in this assay is rad50
This is part of a sample that, as a whole, favours compounds with a hit. Of some 79,000 tested, about 15% had one in any assay.
Overview of recorded growth inhibition for various compounds
Numeric only. Scale: %

Observe how each entry below is paired with its result.
compound=O=Nc1cccnc1N=O recorded_metric="growth inhibition" val=7
compound=CC1=C(SCCO)C(=O)c2ccccc2C1=O recorded_metric="growth inhibition" val=-3
compound=CSC(=S)Nc1cc(C)ccn1 recorded_metric="growth inhibition" val=12
compound=CCCCCCCCNC(=O)C1=C(C)NC(C)=C(C(=O)NCCCCCCCC)C1 recorded_metric="growth inhibition" val=-4
compound=O=C1C=CC(=O)N1c1ccc2c(c1)Cc1cc(NC(=O)C(F)(F)F)ccc1-2 recorded_metric="growth inhibition" val=13
compound="CC(C)C1=CCC2C(=C1)CCC1C(C)(C(=O)O)CCCC21C (configuration not stated) (tested in a mixture with another compound)" recorded_metric="growth inhibition" val=11
compound=Cc1[nH]c2ccccc2c1C(c1ccc(N)cc1)c1c(C)[nH]c2ccccc12 recorded_metric="growth inhibition" val=6
compound=[O-][n+]1c2ccc(O)cc2nc2ccc(Br)cc21 recorded_metric="growth inhibition" val=2
compound="CN1c2ccc(Cl)cc2C(=O)NC1c1ccc([N+](=O)[O-])s1 (configuration not stated)" recorded_metric="growth inhibition" val=20
compound=Cc1ccc(NC(=O)/C(Cl)=C(\Cl)C(=O)O)cc1C recorded_metric="growth inhibition" val=2

Task item: Item under review: O=[N+]([O-])CC(SCc1ccccc1)c1ccc2c(c1)OCO2 (configuration not stated) . Reported growth inhibition?
Reply: 41

Task item: Next compound: `O=C(/C=C\c1ccc(Cl)cc1Cl)c1cccs1`
Reply: -1

Task item: Next compound: `CN(C)c1ccc(C(C#N)=C(C#N)C#N)cc1`
Reply: -2

Task item: Next compound: `FC(F)(F)c1nc2nc(Cl)c(Cl)nc2n1CCCN1CCOCC1`
Reply: 5

* * *

assay: NCI Yeast Anticancer Drug Screen. Data for the rad50 strain (AID 155);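 also: 0% = growth of vehicle-only cultures of the same strain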; settings: S. cerevisiae rad50 strain growth inhibition; at 5.0 µM (retest, dose inferred, filed as 0.5)
The panel holds about 79,000 compounds, 15% with a hit somewhere; the sample as a whole holds those more often. Active and inactive are the calls of the source. Cut-off read from the data, not from the text of the source: active = growth inhibition above about 70%; inactive = the rest.
Choose one outcome from this list and give only that: y for active, n for inactive

compound="O=C1C2C(C(=O)N1c1ccc(OCc3ccccc3)cc1)C1c3ccccc3C2C2CCCCN21 (stereo unspecified)" group=n

Task item: Give the logged outcome of this assay for the following compound: `CCN(CC)[P+](c1ccccc1O)(N(CC)CC)N(CC)CC`
Reply: n

Task item: Next compound: `S=C(Nc1ccc(Cl)cc1)SC1CCCCC1`
Reply: n

Task item: Next compound: `CN(N=O)N1C(=O)SCC(c2ccccc2)(c2ccccc2)C1=O`
Reply: n

* * *

assay: NCI Yeast Anticancer Drug Screen. Data for the CLN2oe strain (AID 163);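 also: 0% = growth of vehicle-only control cultures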; details: S. cerevisiae CLN2oe strain, at 11.0 µM
Compounds without any hit were thinned out: in the full panel of roughly 79,000, 15% have a hit. Active and inactive are the calls of the source. No stated cut-off is given here; in the data, active means growth inhibition above about 70%; inactive means the rest.
Choose one outcome from this list and give only that: yes = active, no = inactive

Look over these answered cases.
molecule=CC(C)/C(Cl)=N\OC(=O)Nc1ccccc1F group=no
molecule="CCCN(CCC)CC(O)c1cc(-c2ccc(Cl)cc2)nc2c(C)c(Cl)ccc12 (stereo not given)" group=yes
molecule=CCNc1nnc(CSc2nc(-c3ccccc3)c(-c3ccccc3)[nH]2)s1 group=no
molecule="C[CH2][Sn]([CH2]C)([O]C(=O)C(OC(C)=O)c1ccccc1)[O]C(=O)C(OC(C)=O)c1ccccc1 (stereo not given)" group=no

Pending molecule:
Task item: Give the logged outcome of this assay for the following molecule: `C[C@H](CCC(=O)NN)[C@H]1CC[C@H]2[C@@H]3CC[C@@H]4C[C@H](O)CC[C@]4(C)[C@H]3CC[C@]12C`
Reply: no
